This section presents molecules with their documented cell proliferation values.
Tested on: U2932 parental
Assay: cell proliferation relative to vehicle (% of vehicle); higher = less growth inhibition
Settings: 500 nM; 72 h
Hey, just send me the number, nothing else.

Look over these answered cases.
>  <molecule>
O=S(=O)(O)CCS

>  <cell proliferation>
103

$$$$
>  <molecule>
COC(=O)c1ccc2c(c1)NC(=O)/C2=C(\Nc1ccc(N(C)C(=O)CN2CCN(C)CC2)cc1)c1ccccc1

>  <cell proliferation>
96.6

$$$$
>  <molecule>
CN1CCN(CCOc2cc(OC3CCOCC3)c3c(Nc4c(Cl)ccc5c4OCO5)ncnc3c2)CC1

>  <cell proliferation>
98.9

$$$$
>  <molecule>
O=C(CCCCCCNC(=O)c1cnc(N(c2ccccc2)c2ccccc2)nc1)NO

>  <cell proliferation>
92.2

$$$$

The molecule listed as Cc1cc(Nc2cc(N3CCN(C)CC3)nc(Sc3ccc(NC(=O)C4CC4)cc3)n2)n[nH]1 has a reported cell proliferation of 57.8

# cell proliferation of COc1nc(OCc2cccc(-c3ccccc3)c2C)ccc1CNCCNC(C)=O = 91.5
